- Species on record: Rattus norvegicus
- method.notes: DrugMatrix - Regimen: Daily Repeat
- Format: toxicity, organism-based, Sprague-Dawley
- Parameters: regimen Daily Repeat, gender Male, age 6-8 weeks
- reported.conditions: in vivo, ip, 160 mg/kg, […], tissue Blood, route intraperitoneal, dose level High, time 28 day, vehicle 100 % SALINE

molecular.string	ABSOLUTE BASOPHIL / cells/µL
NCC[C@H](O)C(=O)N[C@@H]1C[C@H](N)[C@@H](O[C@H]2O[C@H](CN)[C@@H](O)[C@H](O)[C@H]2O)[C@H](O)[C@H]1O[C@H]1O[C@H](CO)[C@@H](O)[C@H](N)[C@H]1O	97

---

- Organism: Rattus norvegicus
- method.notes: DrugMatrix - Regimen: Daily Repeat
- Assay type: toxicity, organism-based, Sprague-Dawley
- Set-up: regimen Daily Repeat, gender Male, age 6-8 weeks
- reported.conditions: in vivo, po, 10 mg/kg, 72 h, tissue Blood, route oral GAVAGE, dose level Low, time 3 day, vehicle .5 % CMC
measurement.type: HEMATOCRIT (%)

In [3]: df
Out[3]:
                                   molecule  measurement_units  observed_value
0  CC(=O)O[C@]1(C(C)=O)CC[C@H]2[C@@H]3C=C(Cl)C4=CC(=O)CC[C@]4(C)[C@H]3CC[C@@]21C [CHLORMADINONE ACETATE]                  %            35.5
1  NS(=O)(=O)c1cc2c(cc1Cl)NCNS2(=O)=O [HYDROCHLOROTHIAZIDE]                  %           34.73
2  O=C1CN=C(c2ccccc2)c2cc([N+](=O)[O-])ccc2N1                  %           31.73
3  COc1c(C)c2c(c(O)c1C/C=C(\C)CCC(=O)OCCN1CCOCC1)C(=O)OC2 [MYCOPHENOLATE MOFETIL]                  %           32.07

---

- Species on record: Rattus norvegicus
- method.notes: DrugMatrix - Regimen: Daily Repeat
- Format: toxicity, organism-based, Sprague-Dawley
- Design: regimen Daily Repeat, gender Male, age 6-8 weeks
- reported.conditions: in vivo, po, 0 mg/kg, 120 h, tissue Blood, route oral GAVAGE, dose level Control, time 5 day, […]
measurement.type: ERYTHROCYTE COUNT (x10E6/uL)

In [3]: df
Out[3]:
                                    compound  observed_value
 0  COC1=CC(=O)C[C@@H](C)[C@]12Oc1c(Cl)c(OC)cc(OC)c1C2=O [GRISEOFULVIN]             5.5
 1  CC(=O)[C@H]1CC[C@H]2[C@@H]3CCC4=CC(=O)CC[C@]4(C)[C@H]3CC[C@]12C [PROGESTERONE]            5.25
 2  COCc1c(C(C)C)nc(C(C)C)c(/C=C/[C@@H](O)C[C@@H](O)CC(=O)O)c1-c1ccc(F)cc1 [CERIVASTATIN]            5.82
 3  CC(C)(Oc1ccc(CCNC(=O)c2ccc(Cl)cc2)cc1)C(=O)O [BEZAFIBRATE]            7.26
 4  Oc1c(Cl)cc(Cl)cc1Sc1cc(Cl)cc(Cl)c1O [BITHIONOL]            5.36
 5  c1ccc2[nH]c(-c3cscn3)nc2c1 [THIABENDAZOLE]            5.61
 6  O=[N+]([O-])c1cc([As](=O)(O)O)ccc1O [ROXARSONE]            7.26
 7  COc1ccc2c(c1)c(CC(=O)OCC(=O)O)c(C)n2C(=O)c1ccc(Cl)cc1 [ACEMETACIN]            5.89
 8  CC(C)n1c(/C=C/C(O)CC(O)CC(=O)O)c(-c2ccc(F)cc2)c2ccccc21 (stereo not given) [FLUVASTATIN]            5.36
 9  CN(C)CCCC1(c2ccc(F)cc2)OCc2cc(C#N)ccc21 (stereo not given) [CITALOPRAM]            5.25
10                        C=CCN [ALLYLAMINE]            6.62
11  CC1=C(/C=C/C(C)=C/C=C/C(C)=C\C(=O)O)C(C)(C)CCC1 [ISOTRETINOIN]            5.36
12  CCCC[C@@H](CC)COC(=O)c1ccccc1C(=O)OC[C@@H](CC)CCCC [BIS(2-ETHYLHEXYL)PHTHALATE]            5.61
13  Cn1cnc([N+](=O)[O-])c1Sc1ncnc2nc[nH]c12 [AZATHIOPRINE]            5.31
14  CSc1ccc2c(c1)N(CCC1CCCCN1C)c1ccccc1S2 (stereo not given) [THIORIDAZINE]            5.84
